target: full-length beta-Catenin (Uniprot ID P35222) (Homo sapiens (Human)) (UniProt P35222); test: fluorescence polarization competition; full-length beta-catenin, competitor 5FAM-TCF4 10-53
pIC50: −log10 of the molar value. Starred links: 1 amine or outer side, 2 acyl side, 3 side chain; linkers in the order of their positions; H or OH if unused. Positions of bridges follow the written chain, without caps; N, C: chain ends. Non-standard residues stand in square brackets, D forms with d. Primed or numbered codes have the meaning given here. *: point of attachment. PyrS2″ = (S)-3-amino-1-((pent-4-en-1-yloxy)carbonyl)pyrrolidine-3-carboxylic acid (stapling residue), C=CCCCOC(=O)N1CC[C@@](N[*:1])(C(=O)[*:2])C1; Tf = trifluoromethylsulfonyl on Dap side-chain N ([Tf]Dap = (S)-2-amino-3-((trifluoromethyl)sulfonamido)propanoic acid), O=S(=O)(C(F)(F)F)*; B5(16) = 2-amino-2-(pent-4-en-1-yl)hept-6-enoic acid = 2,2-bis(4-pentenyl)glycine (stitching residue), C=CCCCC(CCCC=C)(N[*:1])C(=O)[*:2]; B5(4) = 2,2-bis(4-pentenyl)glycine = 2-amino-2-(pent-4-en-1-yl)hept-6-enoic acid (stitching residue), C=CCCCC(CCCC=C)(N[*:1])C(=O)[*:2]; B5(5) = 2,2-bis(4-pentenyl)glycine, 2-amino-2-(pent-4-en-1-yl)hept-6-enoic acid (stitching residue), C=CCCCC(CCCC=C)(N[*:1])C(=O)[*:2]; Phe(2-Cl) = N[C@@H](Cc1ccccc1Cl)C(=O)O; Bta = N[C@@H](Cc1csc2ccccc12)C(=O)O; αAllylPro = C=CC[C@@]1(C(=O)O)CCCN1; tBuAla = CC(C)(C)C[C@H](N)C(=O)O; Cha = N[C@@H](CC1CCCCC1)C(=O)O; Cit = NC(=O)NCCC[C@H](N)C(=O)O; S8 = C=CCCCCCC[C@](C)(N)C(=O)O; Dap = NC[C@H](N)C(=O)O
quantity: pIC50

The following binders have reported results that may help.
Ac-[αAllylPro]D[tBuAla][B5(5)]DEAAFF[PyrS2″][Phe(2-Cl)][Bta][dT]-NH2 (staple 1-4, 4-11) [I-1038] | 7.00
Ac-[αAllylPro]DL[B5(4)]DEAAF[Cit][S8]F[Bta]-NH2 (staple 1-4, 4-11) [I-628] | 7.22
Ac-[αAllylPro]D[Cha][B5(4)]DEAAFN[S8]F[Bta]-NH2 (staple 1-4, 4-11) [I-627] | 6.47

[I] Ac-[αAllylPro]DI[B5(4)][Dap](Tf)EAAFQ[S8]F[Bta]Q-NH2 (staple 1-4, 4-11) [I-631]
[II] Ac-[αAllylPro]DL[B5(16)]DEAAF[Cit][S8]F[Bta]-NH2 (staple 1-4, 4-11; not fully specified; printed as Ac-PL3-Asp-Leu-B5-Asp-Glu-Ala-Ala-Phe-Cit-S8-Phe-BztA-NH2) [I-629]
Input line: Between the entries labelled I and II , which has a larger pIC50 value on record? Please identify the chosen entry by its label.
Output line: II
(II: 7.44, I: 5.30)

[P] Ac-[αAllylPro]DI[B5(4)][Dap](Tf)EAAFQ[S8]F[Bta]Q-NH2 (staple 1-4, 4-11) [I-630]
[Q] Ac-[αAllylPro]D[tBuAla][B5(5)]DEAAFL[PyrS2″][Phe(2-Cl)][Bta][dT]-NH2 (staple 1-4, 4-11) [I-1039]
Input line: Between the entries labelled P and Q , which has a larger pIC50 value on record? Please identify the chosen entry by its label.
Output line: Q
(Q: 7.24, P: 5.30)

[1] Ac-[αAllylPro]E[tBuAla][B5(5)]DDAAFN[PyrS2″][Phe(2-Cl)][Bta][dT]-NH2 (staple 1-4, 4-11) [I-1029]
[2] Ac-[αAllylPro]D[tBuAla][B5(5)]DEAAFS[PyrS2″][Phe(2-Cl)][Bta][dT]-NH2 (staple 1-4, 4-11) [I-1036]
Input line: Between the entries labelled 1 and 2 , which has a larger pIC50 value on record? Please identify the chosen entry by its label.
Output line: 2

[I] Ac-[αAllylPro]D[tBuAla][B5(5)]EDAAFN[PyrS2″][Phe(2-Cl)][Bta][dT]-NH2 (staple 1-4, 4-11) [I-1030]
[II] Ac-[αAllylPro]D[tBuAla][B5(5)]DDAAFT[PyrS2″][Phe(2-Cl)][Bta][dT]-NH2 (staple 1-4, 4-11) [I-1033]
Input line: Of I and II , which shows the smaller pIC50 value? Please identify the chosen entry by its label.
Output line: I
